target: Neprilysin (Oryctolagus cuniculus, UniProt P08049); assay: Ttested for its inhibitory activity against neutral endopeptidase (NEP)
Sequence (P08049 whole entry): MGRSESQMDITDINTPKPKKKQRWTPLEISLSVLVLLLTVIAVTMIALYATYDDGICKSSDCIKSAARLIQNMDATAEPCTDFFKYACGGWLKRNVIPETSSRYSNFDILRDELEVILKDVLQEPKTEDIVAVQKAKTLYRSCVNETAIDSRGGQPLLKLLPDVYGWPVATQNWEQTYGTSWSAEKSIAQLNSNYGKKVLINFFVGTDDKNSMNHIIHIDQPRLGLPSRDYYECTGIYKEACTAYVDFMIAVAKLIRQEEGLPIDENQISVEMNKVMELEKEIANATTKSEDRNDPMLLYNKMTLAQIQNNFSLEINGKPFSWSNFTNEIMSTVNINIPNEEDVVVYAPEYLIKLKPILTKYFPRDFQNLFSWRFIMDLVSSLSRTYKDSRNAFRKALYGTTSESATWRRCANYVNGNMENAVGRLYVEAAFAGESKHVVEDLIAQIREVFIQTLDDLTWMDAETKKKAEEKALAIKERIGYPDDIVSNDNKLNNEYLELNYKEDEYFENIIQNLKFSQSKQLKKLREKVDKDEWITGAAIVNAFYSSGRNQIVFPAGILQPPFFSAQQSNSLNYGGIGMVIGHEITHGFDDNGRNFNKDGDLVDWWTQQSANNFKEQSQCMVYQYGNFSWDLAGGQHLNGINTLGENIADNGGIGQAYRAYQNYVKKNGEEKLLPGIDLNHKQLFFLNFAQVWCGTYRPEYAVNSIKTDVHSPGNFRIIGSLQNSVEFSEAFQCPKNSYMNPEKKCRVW
result_type: pIC50
Keep it numeric: pIC50 is minus log10 of the concentration in mol/L.

Quick check: pIC50 of `COc1ccc(CSC[C@@H](NC(=O)[C@H](CS)Cc2ccccc2)C(=O)O)cc1` ?
7.77

Quick check: pIC50 of `Cc1ccc(CSC[C@@H](NC(=O)[C@@H](CS)Cc2ccccc2)C(=O)O)cc1C` ?
6.43

###

tested on: Rattus norvegicus; test: Tested for in vivo Antihypertensive activity in DOCA rat by giving peroral dose of 10 mg/kg; format: functional; conditions: route oral
What Delta blood pressure was measured for each of the following?
Give a bare numeral; the unit mmHg is implied.

Quick check: Delta blood pressure of CSCC[C@@H](NC(=O)C(CSC(C)=O)Cc1ccccc1)C(=O)N1CCCC1 (stereo not given in full) ?
24

Quick check: Delta blood pressure of `CC(=O)SC[C@@H](Cc1ccccc1)C(=O)N[C@H](CSCc1ccc(C)cc1)C(N)=O` ?
29

Quick check: Delta blood pressure of CSCC[C@@H](NC(=O)C(CSC(C)=O)Cc1ccccc1)C(=O)N1CCOCC1 (stereo not given in full) ?
20

Quick check: Delta blood pressure of `COC(=O)[C@@H](CCSC)NC(=O)[C@H](CSC(C)=O)Cc1ccccc1` ?
14

Quick check: Delta blood pressure of `Cc1ccc(CSC[C@@H](NC(=O)[C@@H](CS)Cc2cccc3ccccc23)C(=O)O)cc1` ?
8

This collection of values is drawn from ChEMBL document CHEMBL1127600.
